Values were extracted from patent US20240381872A1.

Test system: Matricaria inodora (MATIN)
protocol: Herbicidal pre-emergence action, section C (Table C6)
Assay type: in vivo
measurement_parameters: application rate 320 g/ha; visual grading after ca. 3 weeks
readout_label: pre-emergence activity against MATIN in % (%)
Give the value, in units of %, as a plain number.

Below are worked cases with known answers.
COC(=O)CCC(=O)N1CSc2cc(Cl)c(-c3ccccc3F)nc21
80
Cc1cc2c(nc1-c1ccccc1F)N(C(=O)C1(C)CC(Cl)=NO1)CS2 (stereo not shown)
90
Cc1cc2c(nc1-c1ccccc1)N(C(=O)C1(C)CC(Cl)=NO1)CS2 (stereo not shown)
90

Recorded pre-emergence activity against MATIN in % for Cc1ccccc1-c1nc2c(cc1C)SCN2C(=O)C1(C)CC(Cl)=NO1 (stereo not shown) with Matricaria inodora (MATIN), please?
90

Record: CC1(C(=O)N2CSc3cc(Br)c(-c4ccccc4)nc32)CC(Cl)=NO1 (stereo not shown)
80

Record: `Cc1cc2c(nc1-c1ccccc1F)N(S(=O)(=O)Cc1ccc(F)cc1)CS2`
80

Record: `COC(=O)CCC(=O)N1CSc2cc(C)c(-c3ccccc3F)nc21`
90

* * *

System: Matricaria inodora (MATIN)
protocol: Herbicidal pre-emergence action, section C (Table C6)
Assay type: in vivo
measurement_parameters: Tripleurospermum inodorum, pre-emergence, 504 h; application rate 320 g/ha; visual grading after ca. 3 weeks; read-out: pre-emergence activity against MATIN in %
Let's look at some compounds and their measured pest or weed control at 320 g/ha.
Give the value, in units of %, as a plain number.

Below are worked cases with known answers.
Fc1ccccc1-c1nc2c(cc1Br)SCN2
90
CCOCCS(=O)(=O)N1C[S+]([O-])c2cc(C)c(-c3ccccc3F)nc21 (stereo not drawn)
90
Cc1cc2c(nc1-c1cccc(F)c1F)NCS2
80
CCS(=O)(=O)N1CSc2cc(C)c(-c3ccccc3F)nc21
90
Cc1cc2c(nc1-c1ccccc1Cl)NCS2
80

What value of pest or weed control at 320 g/ha has been recorded for this entry: CC(C)C(=O)N1C[S+]([O-])c2cc(Br)c(-c3ccccc3)nc21 (stereo not drawn)
80

* * *

Let's look at some compounds and their measured post-emergence activity against KCHSC in %.
Test system: Kochia scoparia (KCHSC)
protocol: Herbicidal post-emergence action, section E (Table E11)
Type: in vivo
measurement_parameters: application rate 320 g/ha, visual assessment ca. 3 weeks after spraying
Give the value, in units of %, as a plain number.

Below are worked cases with known answers.
Cc1cc2c(nc1-c1ccccc1F)N(C(=O)C13CCCC1C(Cl)=NO3)CS2 (stereo not shown)
90
COCCOCCOCC(=O)N1CSc2cc(Br)c(-c3cccc(F)c3F)nc21
80
Cc1cc2c(nc1-c1ccccc1)N(C(=O)C1(C)CC(Cl)=NO1)CS2 (stereo not shown)
80

What value of post-emergence activity against KCHSC in % has been recorded for this entry: CC1(C(=O)N2CSc3cc(Br)c(-c4ccccc4)nc32)CC(Cl)=NO1 (stereo not shown)
90

* * *

Tested on: Triticum aestivum (TRZAS)
protocol: Post-emergence effects on crop plants, section F (Table F2)
Type: in vivo
measurement_parameters: crop plant damage, application rate 80 g/ha
Let's look at some compounds and their measured post-emergence activity against TRZAS in %.
Give the value, in units of %, as a plain number.

Below are worked cases with known answers.
Cc1cc2c(nc1-c1ccccc1F)N(C(=O)C13CCCC1C(Cl)=NO3)CS2 (centres unmarked) [Example I-104]
0
CC1(C(=O)N2CSc3cc(Br)c(-c4ccccc4)nc32)CC(Cl)=NO1 (centres unmarked) [Example I-139]
0
Cc1cc2c(nc1-c1ccccc1F)N(S(=O)(=O)Cc1ccc(F)cc1)CS2 [Example I-122]
20
Cc1ccccc1-c1nc2c(cc1C)SCN2C(=O)C1(C)CC(Cl)=NO1 (centres unmarked) [Example I-137]
0

What value of post-emergence activity against TRZAS in % has been recorded for this entry: BN1CSc2cc(Br)c(-c3ccccc3C)nc21 [Example I-011]
0

* * *

Test system: Amaranthus retroflexus (AMARE)
protocol: Herbicidal pre-emergence action, section A (Table A11)
Type: in vivo
measurement_parameters: application rate 320 g/ha
readout_label: pre-emergence activity against AMARE in %
Returns: string containing the numeric result and its unit.

Below are worked cases with known answers.
Cc1cc2c(nc1-c1cccc(C)c1F)NCS2 [Example I-113]
90%
COC(=O)CCC(=O)N1CSc2cc(C)c(-c3cccc(F)c3F)nc21 [Example I-153]
90%
Cc1cc2c(nc1-c1ccccc1)N(C(=O)C1(C)CC(Cl)=NO1)CS2 (centres unmarked) [Example I-088]
90%
Cc1cccc(F)c1-c1nc2c(cc1Br)SCN2 [Example I-032]
90%
Cc1ccccc1-c1nc2c(cc1Br)SCN2B1NB(N)N1 [Example I-056]
90%

What value of pre-emergence activity against AMARE in % has been recorded for this entry: O=C(N1CSc2cc(Br)c(-c3cccc(Cl)c3F)nc21)C12CCCC1C(Cl)=NO2 (centres unmarked) [Example I-126]
90%

Record: COC(=O)CS(=O)(=O)N1CSc2cc(C)c(-c3ccccc3F)nc21 [Example I-121]
90%

Record: Cc1cc2c(nc1-c1ccccc1F)N(S(=O)(=O)Cc1ccc(F)cc1)CS2 [Example I-122]
90%

Record: Cc1cc2c(nc1-c1ccccc1F)N(C(=O)C1(C)CC(Cl)=NO1)CS2 (centres unmarked) [Example I-083]
100%

Record: Cc1ccccc1-c1nc2c(cc1C)SCN2C(=O)C1(C)CC(Cl)=NO1 (centres unmarked) [Example I-137]
100%

Record: CC1(C(=O)N2CSc3cc(Br)c(-c4ccccc4)nc32)CC(Cl)=NO1 (centres unmarked) [Example I-139]
100%

Record: Cc1cc2c(nc1-c1cccc(F)c1F)N(C(=O)C1(C)CC(Cl)=NO1)CS2 (centres unmarked) [Example I-152]
100%

* * *

Tested on: Amaranthus retroflexus (AMARE)
protocol: Herbicidal post-emergence action, section B (Table B11)
Format: in vivo
measurement_parameters: application rate 320 g/ha; visual rating about 3 weeks after treatment vs untreated controls
readout_label: post-emergence activity against AMARE in % (%)
Give the value, in units of %, as a plain number.

Below are worked cases with known answers.
COCC1(C(=O)N2CSc3cc(C)c(-c4ccccc4F)nc32)CC(Cl)=NO1 (centres unmarked) [Example I-128]
90
CC1(C(=O)N2CSc3cc(Br)c(-c4ccccc4)nc32)CC(Cl)=NO1 (centres unmarked) [Example I-139]
90
Cc1cc2c(nc1-c1ccccc1F)N(C(=O)C1(C)CC(Cl)=NO1)CS2 (centres unmarked) [Example I-083]
90
Cc1cc2c(nc1-c1ccccc1)N(C(=O)C1(C)CC(Cl)=NO1)CS2 (centres unmarked) [Example I-088]
90

What value of post-emergence activity against AMARE in % has been recorded for this entry: Cc1cc2c(nc1-c1ccccc1F)N(C(=O)C13CCCC1C(Cl)=NO3)CS2 (centres unmarked) [Example I-104]
90

* * *

Tested on: Echinochloa crus-galli (ECHCG)
protocol: Herbicidal pre-emergence action, section A (Table A3)
Type: in vivo
measurement_parameters: application rate 320 g/ha; visual grading after ca. 3 weeks vs untreated controls
readout_label: pre-emergence activity against ECHCG in % (%)
Give the value, in units of %, as a plain number.

Below are worked cases with known answers.
Cc1cccc(F)c1-c1nc2c(cc1Br)SCN2 [Example I-032]
100
Cc1cc2c(nc1-c1cccc(C)c1C)N(C(=O)C1(C)CC(Cl)=NO1)CS2 (stereo not shown) [Example I-138]
90
Cc1ccccc1-c1nc2c(cc1C)SCN2C(=O)C1(C)CC(Cl)=NO1 (stereo not shown) [Example I-137]
100

What value of pre-emergence activity against ECHCG in % has been recorded for this entry: COCC1(C(=O)N2CSc3cc(C)c(-c4ccccc4F)nc32)CC(Cl)=NO1 (stereo not shown) [Example I-128]
100

* * *

Test system: Glycine max (GLXMA)
protocol: Pre-emergence effects on crop plants, section D (Table D4)
Type: in vivo
measurement_parameters: application rate 320 g/ha; visual grading after ca. 3 weeks
Let's look at some compounds and their measured pre-emergence activity against GLXMA in % (crop plant damage).
Give the value, in units of %, as a plain number.

Below are worked cases with known answers.
CCS(=O)(=O)N1C[S+]([O-])c2cc(C)c(-c3ccccc3C)nc21 (centres unmarked)
0
CC(=O)N1CSc2cc(Br)c(-c3ccccc3Cl)nc21
20
BN1CSc2cc(Br)c(-c3ccccc3C)nc21
0
O=C(c1ccccc1C(F)(F)F)N1CSc2cc(Br)c(-c3ccccc3Cl)nc21
0

Next:
Recorded pre-emergence activity against GLXMA in % (crop plant damage) for `Fc1ccccc1-c1nc2c(cc1Br)SCN2` with Glycine max (GLXMA), please?
0

* * *

System: Lolium rigidum (LOLRI)
protocol: Herbicidal pre-emergence action, section C (Table C5)
Type: in vivo
measurement_parameters: Lolium rigidum, pre-emergence, 504 h; application rate 80 g/ha; visual grading after ca. 3 weeks; read-out: pre-emergence activity against LOLRI in %
Let's look at some compounds and their measured pest or weed control at 80 g/ha.
Give the value, in units of %, as a plain number.

Below are worked cases with known answers.
CCS(=O)(=O)N1CSc2cc(C)c(-c3ccccc3F)nc21 [Example I-060]
100
Fc1ccccc1-c1nc2c(cc1Br)SCN2 [Example I-001]
100
CCOCCS(=O)(=O)N1C[S+]([O-])c2cc(C)c(-c3ccccc3F)nc21 (centres unmarked) [Example I-127]
80

What value of pest or weed control at 80 g/ha has been recorded for this entry: Cc1cc2c(nc1-c1ccccc1Cl)NCS2 [Example I-049]
100

Record: Cc1cc2c(nc1-c1ccccc1F)NCS2 [Example I-007]
100
